Assay: In vivo bioavailability / pharmacokinetic study in Beagle dogs
Details: female, Beagle, dog, blood, 50 mg/kg, Beagle dog F1 (female), dose 50 mg/kg, absorption; read-out: T1/2 a
Where a name gives a salt, the structure may show the parent alone.
metric-name: half-life (s)
Write the value in s as a bare number.

Would you mind telling me what half-life value was observed for C=C[C@H]1C[N@@]2CC[C@H]1C[C@@H]2[C@@H](O)c1ccnc2ccccc12 [CDH, cinchonine dihydrochloride] ? 6
